- target.desc: human CD33 P46R (human, UniProt P20138 18-364)
- Sequence (P20138 18-364 P46R limits assumed): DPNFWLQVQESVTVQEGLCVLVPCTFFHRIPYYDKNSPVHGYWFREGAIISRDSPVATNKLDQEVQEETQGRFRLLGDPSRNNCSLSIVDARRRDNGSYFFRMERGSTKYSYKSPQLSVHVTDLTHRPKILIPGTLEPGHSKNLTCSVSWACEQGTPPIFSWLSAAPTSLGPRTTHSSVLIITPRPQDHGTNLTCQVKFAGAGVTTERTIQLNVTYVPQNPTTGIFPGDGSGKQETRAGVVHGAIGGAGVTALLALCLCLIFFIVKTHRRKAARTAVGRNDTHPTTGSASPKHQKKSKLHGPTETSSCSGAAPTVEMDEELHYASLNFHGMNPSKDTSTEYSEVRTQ
- assay.method.text: flow cytometry, mutant on cells, IgG
parameter: Mean % WT Binding
Please answer using the number first and the unit second.

binder	val
Refmab #3 (antibody, human IgG1, V domains shown, Tested in IgG format; human IgG1 Fc silent (PG-LALA)) VH: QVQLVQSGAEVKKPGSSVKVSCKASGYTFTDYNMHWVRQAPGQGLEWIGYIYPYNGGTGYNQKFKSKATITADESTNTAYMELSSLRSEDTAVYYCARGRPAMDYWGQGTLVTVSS VL: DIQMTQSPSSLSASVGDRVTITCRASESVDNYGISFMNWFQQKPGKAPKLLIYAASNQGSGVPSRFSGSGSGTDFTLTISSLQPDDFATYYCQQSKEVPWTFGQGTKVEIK	1 % WT binding
Refmab #1 (antibody, human IgG1, V domains shown, Tested in IgG format; human IgG1 (Absolute Antibody hP67.6, Cat. No. Ab00283-10.0); also called hP67.6) VH: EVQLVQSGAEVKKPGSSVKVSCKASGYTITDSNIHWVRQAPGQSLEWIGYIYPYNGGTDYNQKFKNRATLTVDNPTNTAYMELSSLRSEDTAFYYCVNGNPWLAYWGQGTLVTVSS VL: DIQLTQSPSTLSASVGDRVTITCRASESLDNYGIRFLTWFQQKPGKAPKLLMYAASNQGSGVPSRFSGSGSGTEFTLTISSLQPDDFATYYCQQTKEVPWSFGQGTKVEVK	1 % WT binding

Now turn to the next binder.
Query Mean % WT Binding for Refmab #2 (antibody, human IgG1, V domains shown, Tested in IgG format; human IgG1 Fc silent (PG-LALA)) VH: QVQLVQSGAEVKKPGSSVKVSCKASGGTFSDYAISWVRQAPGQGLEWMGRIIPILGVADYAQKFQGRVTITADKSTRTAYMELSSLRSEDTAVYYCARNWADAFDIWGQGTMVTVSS VL: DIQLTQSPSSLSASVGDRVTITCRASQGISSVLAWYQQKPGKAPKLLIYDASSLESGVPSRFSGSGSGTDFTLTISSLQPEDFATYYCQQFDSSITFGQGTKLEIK 64.7 % WT binding
